- assay-procedure: Ex vivo biodistribution and tumor targeting
- recorded-conditions: female, BALB/c nu/nu, mouse, bone, iv, 45 pmol per mouse, total radioactivity, Bone uptake, PC-3-xenografted BALB/c nu/nu mice, iv 25 kBq/45 pmol, 3 h pi, 4 mice per data point

molecule	unit-tag	tissue uptake at 3 h
CC(C)C[C@H](NC(=O)C[C@H](O)[C@H](CC(C)C)NC(=O)[C@H](Cc1c[nH]cn1)NC(=O)CNC(=O)[C@@H](NC(=O)[C@H](C)NC(=O)[C@H](Cc1c[nH]c2ccccc12)NC(=O)[C@H](CCC(N)=O)NC(=O)[C@@H](Cc1ccccc1)NC(=O)COCCOCCNC(=O)CN1CCN(CC(=O)O)CCN(CC(=O)O)CC1)C(C)C)C(N)=O	%ID/g	0.04
CC(C)C[C@H](NC(=O)C[C@H](O)[C@H](CC(C)C)NC(=O)[C@H](Cc1c[nH]cn1)NC(=O)CNC(=O)[C@@H](NC(=O)[C@H](C)NC(=O)[C@H](Cc1c[nH]c2ccccc12)NC(=O)[C@H](CCC(N)=O)NC(=O)[C@@H](Cc1ccccc1)NC(=O)COCCOCCNC(=O)CCC(C(=O)O)N1CCN(CC(=O)O)CCN(CC(=O)O)CCN(CC(=O)O)CC1)C(C)C)C(N)=O (stereo partly shown)	%ID/g	0.02
CC(C)C[C@H](NC(=O)C[C@H](O)[C@H](CC(C)C)NC(=O)[C@H](Cc1c[nH]cn1)NC(=O)CNC(=O)[C@@H](NC(=O)[C@H](C)NC(=O)[C@H](Cc1c[nH]c2ccccc12)NC(=O)[C@H](CCC(N)=O)NC(=O)[C@@H](Cc1ccccc1)NC(=O)COCCOCCNC(=O)CN1CCN(CC(=O)O)CCN(CC(=O)O)CCN(CC(=O)O)CC1)C(C)C)C(N)=O	%ID/g	0.08
CC(C)C[C@H](NC(=O)C[C@H](O)[C@H](CC(C)C)NC(=O)[C@H](Cc1c[nH]cn1)NC(=O)CNC(=O)[C@@H](NC(=O)[C@H](C)NC(=O)[C@H](Cc1c[nH]c2ccccc12)NC(=O)[C@H](CCC(N)=O)NC(=O)[C@@H](Cc1ccccc1)NC(=O)COCCOCCNC(=O)CCC(C(=O)O)N1CCN(CC(=O)O)CCN(CC(=O)O)CC1)C(C)C)C(N)=O (stereo partly shown)	%ID/g	0.1

* * *

- assay-procedure: Ex vivo biodistribution and tumor targeting
- recorded-conditions: female, BALB/c nu/nu, mouse, lung, iv, 45 pmol per mouse, total radioactivity, Lung uptake, PC-3-xenografted BALB/c nu/nu mice, iv 25 kBq/45 pmol, 24 h pi, 4 mice per data point

molecule	tissue uptake at 24 h / %ID/g
CC(C)C[C@H](NC(=O)C[C@H](O)[C@H](CC(C)C)NC(=O)[C@H](Cc1c[nH]cn1)NC(=O)CNC(=O)[C@@H](NC(=O)[C@H](C)NC(=O)[C@H](Cc1c[nH]c2ccccc12)NC(=O)[C@H](CCC(N)=O)NC(=O)[C@@H](Cc1ccccc1)NC(=O)COCCOCCNC(=O)CN1CCN(CC(=O)O)CCN(CC(=O)O)CC1)C(C)C)C(N)=O	0.09
CC(C)C[C@H](NC(=O)C[C@H](O)[C@H](CC(C)C)NC(=O)[C@H](Cc1c[nH]cn1)NC(=O)CNC(=O)[C@@H](NC(=O)[C@H](C)NC(=O)[C@H](Cc1c[nH]c2ccccc12)NC(=O)[C@H](CCC(N)=O)NC(=O)[C@@H](Cc1ccccc1)NC(=O)COCCOCCNC(=O)CN1CCN(CC(=O)O)CCN(CC(=O)O)CCN(CC(=O)O)CC1)C(C)C)C(N)=O	0.023
CC(C)C[C@H](NC(=O)C[C@H](O)[C@H](CC(C)C)NC(=O)[C@H](Cc1c[nH]cn1)NC(=O)CNC(=O)[C@@H](NC(=O)[C@H](C)NC(=O)[C@H](Cc1c[nH]c2ccccc12)NC(=O)[C@H](CCC(N)=O)NC(=O)[C@@H](Cc1ccccc1)NC(=O)COCCOCCNC(=O)CCC(C(=O)O)N1CCN(CC(=O)O)CCN(CC(=O)O)CC1)C(C)C)C(N)=O (stereo partly shown)	0.02
CC(C)C[C@H](NC(=O)C[C@H](O)[C@H](CC(C)C)NC(=O)[C@H](Cc1c[nH]cn1)NC(=O)CNC(=O)[C@@H](NC(=O)[C@H](C)NC(=O)[C@H](Cc1c[nH]c2ccccc12)NC(=O)[C@H](CCC(N)=O)NC(=O)[C@@H](Cc1ccccc1)NC(=O)COCCOCCNC(=O)CCC(C(=O)O)N1CCN(CC(=O)O)CCN(CC(=O)O)CCN(CC(=O)O)CC1)C(C)C)C(N)=O (stereo partly shown)	0.02
